Listed below: IC50 values for each entry.
System: HCT-116 cells (colorectal carcinoma)
Test: MTT antiproliferative assay, HCT-116
Assay type: cell-based, human
Run Conditions: MTT assay, HCT-116, triplicate; read-out: In vitro cytotoxicity IC50, HCT-116
# output: bare number, implied unit µM

Example entries and their recorded answers appear below.
| Compound | Assayed Target | Observed |
| --- | --- | --- |
| N#Cc1c(-c2cc3ccccc3o2)ccnc1NCCCO [Compound 8] | HCT-116 cells (colorectal carcinoma) | 13.8 |
| N#Cc1c(-c2cc3ccccc3o2)ccnc1NCCO [Compound 7] | HCT-116 cells (colorectal carcinoma) | 38.6 |
| CN(C)C/C=C/C(=O)Nc1cc2c(Nc3ccc(F)c(Cl)c3)ncnc2cc1O[C@H]1CCOC1 [Afatinib, reference compound] | HCT-116 cells (colorectal carcinoma) | 11.2 |

Then there is this compound:
Exercise: What value of IC50 has been reported for the following compound? CC(=C(C#N)C#N)c1cc2ccccc2o1 [Compound 2]
Key: 8.81

Each recorded value in this set is attributed to paper PMC8266232.
